tested on: HT-29; assay: Growth inhibition of human HT-29 cells assessed as cell growth at 10^-8 M incubated for 48 hrs by sulforhodamine B assay relative to control; format: functional; details: HT-29, 48 h, read-out: Activity
Provide the recorded growth at 0.01 µM for the entries that follow.
Give bare numbers, in %.

* C#C[C@@]1(O)[C@@H](CO)O[C@@H](n2cc(F)c3c(N)ncnc32)[C@@H]1O | 96

# ---- query compound ----
Summary for this compound, C#C[C@@]1(O)[C@@H](CO)O[C@@H](n2ccc3c(N)ncnc32)[C@@H]1O : growth at 0.01 µM is 99

* * *

system: ACHN; experiment: Growth inhibition of human ACHN cells assessed as cell growth at 10^-7 M incubated for 48 hrs by sulforhodamine B assay relative to control; assay type: functional; settings: read-out: Activity
Assignment: determine reported growth at 0.1 µM for the given molecules.

- C#C[C@@]1(O)[C@@H](CO)O[C@@H](n2ccc3c(N)ncnc32)[C@@H]1O: 101%
- C#C[C@@]1(O)[C@@H](CO)O[C@@H](n2cc(F)c3c(N)ncnc32)[C@@H]1O: 75%
- C#C[C@@]1(O)[C@@H](CO)O[C@@H](n2cc(Cl)c3c(N)ncnc32)[C@@H]1O: 72%

For every item in the list below, what is its measured growth at 0.1 µM?
1. C#C[C@@]1(O)[C@@H](CO)O[C@@H](n2cc(I)c3c(N)ncnc32)[C@@H]1O
2. C#C[C@@]1(O)[C@@H](CO)O[C@@H](n2cc(Br)c3c(N)ncnc32)[C@@H]1O

a:
["72%", "75%"]

* * *

system: IGROV-1; assay: Cytotoxicity against human IGROV1 cells after 48 hrs by SRB assay; assay type: functional; conditions: IGROV-1, 48 h, read-out: TGI
readout.label: TGI (nM)
Give bare numbers, in nM.

Some compounds with known TGI results, for comparison:
- C#C[C@@]1(O)[C@@H](CO)O[C@@H](n2cc(F)c3c(N)ncnc32)[C@@H]1O: 1420
- C#C[C@@]1(O)[C@@H](CO)O[C@@H](n2cc(Br)c3c(N)ncnc32)[C@@H]1O: 485
- C#C[C@@]1(O)[C@@H](CO)O[C@@H](n2ccc3c(N)ncnc32)[C@@H]1O: 5850

Pending compound:
Quick note, TGI for C#C[C@@]1(O)[C@@H](CO)O[C@@H](n2cc(Cl)c3c(N)ncnc32)[C@@H]1O landed at 475

* * *

tested on: K562; assay: Cytotoxicity against human K562 cells after 48 hrs by SRB assay; assay type: functional; conditions: K562, 48 h, read-out: TGI
readout.label: TGI

Worked cases, answers included:
• C#C[C@@]1(O)[C@@H](CO)O[C@@H](n2cc(Cl)c3c(N)ncnc32)[C@@H]1O = > 100 µM
• C#C[C@@]1(O)[C@@H](CO)O[C@@H](n2cc(F)c3c(N)ncnc32)[C@@H]1O = > 100 µM
• C#C[C@@]1(O)[C@@H](CO)O[C@@H](n2cc(I)c3c(N)ncnc32)[C@@H]1O = > 100 µM
• C#C[C@@]1(O)[C@@H](CO)O[C@@H](n2ccc3c(N)ncnc32)[C@@H]1O = > 100 µM

Attention now turns to another entry.
TGI in this record for C#C[C@@]1(O)[C@@H](CO)O[C@@H](n2cc(Br)c3c(N)ncnc32)[C@@H]1O : > 100 µM

Taken from ChEMBL document CHEMBL4270599.
